Target: SCD5 (Homo sapiens)
Construct: host or cells: S. cerevisiae ole1Δ strain (W303 pdr1Δ pdr3Δ background), plasmid pRS316 with TDH3 promoter and CYC1 terminator
Sequence (Q86SK9 1-330): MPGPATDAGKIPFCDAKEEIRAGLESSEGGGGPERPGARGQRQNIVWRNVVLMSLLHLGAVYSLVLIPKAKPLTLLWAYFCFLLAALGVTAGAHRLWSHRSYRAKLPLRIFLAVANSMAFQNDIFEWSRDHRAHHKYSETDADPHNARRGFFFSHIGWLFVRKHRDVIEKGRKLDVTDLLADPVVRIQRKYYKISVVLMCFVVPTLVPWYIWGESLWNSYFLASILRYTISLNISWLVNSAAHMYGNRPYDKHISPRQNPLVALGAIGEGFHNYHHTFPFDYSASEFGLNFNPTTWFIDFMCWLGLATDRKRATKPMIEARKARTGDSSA
Experiment: Growth inhibition of humanized yeast strain expressing SCD5 as sole desaturase
Assay type: cell-based
Conditions: humanized yeast strain, 40 h
pIC50: −log10 of the molar value.
pIC50 of 7 or higher: rule met. Under 7: rule not met.

hey, is pIC50 for this one >= 7? O=C(N1CCC(c2noc(-c3cccc(N4CCOCC4)c3)n2)CC1)C1(F)CC1
rule not met

hey, is pIC50 for this one >= 7? CC(C)(C)OC(=O)N1CCC(c2noc(-c3ccc4cnn([C@@H]5CCOC5)c4c3)n2)CC1
rule met

hey, is pIC50 for this one >= 7? C[C@H](NC(=O)[C@H]1[C@@H]2CN(C(=O)OC(C)(C)C)C[C@@H]21)c1ccccc1
rule not met

hey, is pIC50 for this one >= 7? CC(C)n1ncc2ccc(-c3nc(N4CCN(C(=O)CC5CC5)CC4)no3)cc21
rule met

hey, is pIC50 for this one >= 7? O=C(CC1CC1)N1CCC(c2noc(-c3ccc4cnn([C@@H]5CCOC5)c4c3)n2)CC1
rule met

hey, is pIC50 for this one >= 7? COC(=O)N1CCN(c2nc(-c3cccc(C4CCOC4)c3)no2)CC1 (centres unmarked)
rule not met

hey, is pIC50 for this one >= 7? Clc1cnc2n1CCN(c1noc(-c3ccc4cnn(C5CCC5)c4c3)n1)C2
rule not met

hey, is pIC50 for this one >= 7? Cc1nn(C)c2cc(-c3nc(C4CCN(C(=O)C(C)C)CC4)no3)ccc12
rule not met

hey, is pIC50 for this one >= 7? CC1(OC(=O)N2CCC(c3noc(N4CCc5c(cnn5C5COC5)C4)n3)CC2)CC1
rule not met

hey, is pIC50 for this one >= 7? CC(C)C(=O)N1CCC(c2noc(-c3ccnc(N(C)C4COC4)c3)n2)CC1
rule not met

hey, is pIC50 for this one >= 7? CC(C)(C)OC(=O)N1CCN(c2noc(-c3ccnc(N4CCOCC4)c3)n2)CC1
rule not met

hey, is pIC50 for this one >= 7? CC(C)(C)OC(=O)N1CCN(c2noc(-c3ccnc(OC4COC4)c3)n2)CC1
rule not met

hey, is pIC50 for this one >= 7? CC(C)C(=O)N1CCC(c2noc(-c3ccnc(-c4ccn(C)n4)c3)n2)CC1
rule not met

hey, is pIC50 for this one >= 7? O=C(C1CCC1)N1CCC(c2noc(-c3ccc4cnn(C5COC5)c4c3)n2)CC1
rule met

hey, is pIC50 for this one >= 7? CC(C)(C)OC(=O)N1CCC(c2noc(-c3ccc4cnc(C5COC5)n4c3)n2)CC1
rule not met

hey, is pIC50 for this one >= 7? O=C(C1CC1)N1CCC(c2noc(-c3cc(F)c4cnn(C5COC5)c4c3)n2)CC1
rule met

hey, is pIC50 for this one >= 7? CC(C)(C)OC(=O)N1CCC(c2noc(N3CCc4c(cnn4C4COC4)C3)n2)CC1
rule not met

hey, is pIC50 for this one >= 7? CC(C)(C)OC(=O)N1CC(n2ncc3ccc(-c4nc(N5CCn6c(Cl)cnc6C5)no4)cc32)C1
rule not met

hey, is pIC50 for this one >= 7? COC(=O)N1CCC(F)(c2noc(-c3ccc4cnn(C5COC5)c4c3)n2)CC1
rule met

hey, is pIC50 for this one >= 7? O=C(C1CCC1)N1CCC(c2noc(-c3ccnc(C4CCOC4)c3)n2)CC1 (centres unmarked)
rule met

hey, is pIC50 for this one >= 7? CC(C)(C)OC(=O)N1CCC(c2noc(-c3cccc([C@H]4CCOC4)c3)n2)CC1
rule met

hey, is pIC50 for this one >= 7? CCC(=O)N1CCC(c2noc(-c3cc(F)c4cnn(C5COC5)c4c3)n2)CC1
rule met
